Please provide measured IC50 for the entries that follow.
# Tested on: Kidney
# test_protocol: Inhibition of lipid peroxidation in renal failured rat kidney homogenate assessed as inhibition of malondialdehyde level by TBARS assay
# Assay type: functional, tissue-based
Numbers only, in µM.

Observe how each entry below is paired with its result.
| smiles_notation | IC50, µM |
| --- | --- |
| O=C1O[C@H]([C@@H](O)CO)C(O)=C1O | 3050 |
| COc1ccc(O)c(-c2cc3ccc(O)c(OC)c3o2)c1OC | 160 |
| COc1c(CCC(C)(C)O)c(O)cc2oc(=O)c3c4cc(O)c(O)cc4oc3c12 | 450 |

Let's switch to this compound now.
// fetch IC50 given entry "COc1cc(OC)c(-c2oc3cc(O)c(O)cc3c2C=O)c(OC)c1"
640

====

# test_protocol: Antioxidant activity against 2,2'-azobis (2-amidinopropane) dihydrochloride-induced fluorescence decay at 1.5 uM assessed as trolox equivalents by ORAC-fluorescence assay
# Assay type: functional
attribute_measured: Activity
One number for each entry.

| smiles_notation | attribute_measured | reading |
| --- | --- | --- |
| O=C1O[C@H]([C@@H](O)CO)C(O)=C1O | Activity | 165 |
| COc1cc(OC)c(-c2oc3cc(O)c(O)cc3c2C=O)c(OC)c1 | Activity | 189 |
| COc1ccc(O)c(-c2cc3ccc(O)c(OC)c3o2)c1OC | Activity | 763 |

Let's switch to this compound now.
// fetch Activity given entry "COc1c(CCC(C)(C)O)c(O)cc2oc(=O)c3c4cc(O)c(O)cc4oc3c12"
450
